Data provenance is patent US20250304596A1.

Form field: DC50 (one value per entry).
# Target or system: HiBit-BRG1 fusion protein (Homo sapiens, UniProt P51532)
# Construct: expressed in transfected cells
# Sequence (P51532 whole entry, the tested form may be a part): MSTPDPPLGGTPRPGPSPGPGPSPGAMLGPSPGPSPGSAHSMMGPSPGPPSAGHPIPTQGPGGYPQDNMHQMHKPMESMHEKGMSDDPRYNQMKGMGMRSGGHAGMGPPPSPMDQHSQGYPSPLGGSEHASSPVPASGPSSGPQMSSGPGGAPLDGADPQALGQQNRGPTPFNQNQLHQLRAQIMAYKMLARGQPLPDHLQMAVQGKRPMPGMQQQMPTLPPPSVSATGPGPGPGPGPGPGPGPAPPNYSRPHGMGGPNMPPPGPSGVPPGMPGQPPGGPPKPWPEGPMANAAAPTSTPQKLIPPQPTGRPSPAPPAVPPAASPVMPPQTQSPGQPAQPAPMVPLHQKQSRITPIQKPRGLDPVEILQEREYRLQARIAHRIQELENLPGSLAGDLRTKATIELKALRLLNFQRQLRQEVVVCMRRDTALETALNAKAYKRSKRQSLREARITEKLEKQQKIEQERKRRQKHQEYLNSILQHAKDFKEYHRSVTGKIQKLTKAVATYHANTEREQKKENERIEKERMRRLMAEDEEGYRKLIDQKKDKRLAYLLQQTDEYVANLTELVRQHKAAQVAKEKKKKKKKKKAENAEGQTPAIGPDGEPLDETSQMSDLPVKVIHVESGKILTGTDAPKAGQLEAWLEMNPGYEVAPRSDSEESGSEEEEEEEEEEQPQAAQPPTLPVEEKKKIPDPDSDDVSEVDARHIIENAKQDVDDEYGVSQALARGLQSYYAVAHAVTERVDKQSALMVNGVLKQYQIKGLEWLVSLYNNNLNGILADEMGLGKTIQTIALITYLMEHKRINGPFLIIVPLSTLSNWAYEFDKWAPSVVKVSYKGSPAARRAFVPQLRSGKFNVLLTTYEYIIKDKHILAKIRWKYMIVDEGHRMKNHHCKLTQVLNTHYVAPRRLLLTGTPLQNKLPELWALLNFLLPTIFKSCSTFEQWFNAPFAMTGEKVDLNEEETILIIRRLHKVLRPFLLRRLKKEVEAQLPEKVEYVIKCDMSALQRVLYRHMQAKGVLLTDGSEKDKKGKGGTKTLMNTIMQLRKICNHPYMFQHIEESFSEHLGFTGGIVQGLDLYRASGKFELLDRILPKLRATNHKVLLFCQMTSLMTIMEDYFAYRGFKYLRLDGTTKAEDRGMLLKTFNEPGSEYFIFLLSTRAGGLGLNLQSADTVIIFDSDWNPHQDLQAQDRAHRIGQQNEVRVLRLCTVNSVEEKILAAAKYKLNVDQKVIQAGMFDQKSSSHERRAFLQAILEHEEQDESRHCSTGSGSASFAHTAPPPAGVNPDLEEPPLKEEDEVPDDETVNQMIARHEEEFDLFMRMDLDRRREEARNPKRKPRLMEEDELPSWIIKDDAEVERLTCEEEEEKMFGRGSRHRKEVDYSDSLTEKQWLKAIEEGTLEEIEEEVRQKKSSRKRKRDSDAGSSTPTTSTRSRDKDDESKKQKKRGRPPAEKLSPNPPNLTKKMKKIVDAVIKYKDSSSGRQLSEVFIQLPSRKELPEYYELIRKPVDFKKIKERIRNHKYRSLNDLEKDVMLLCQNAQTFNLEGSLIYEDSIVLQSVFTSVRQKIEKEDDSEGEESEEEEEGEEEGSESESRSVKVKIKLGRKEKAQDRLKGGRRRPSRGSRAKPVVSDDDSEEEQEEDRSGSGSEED
# Experiment summary: HiBiT-BRG1 cell-based degradation assay (Nano-Glo HiBiT Lytic Detection, 24 h)
# Experimental context: stable HeLa cell line expressing HiBit-BRG1 and LgBit, read-out: BRMG1 HiBit Degradation IC50

{"Compound": "Cc1cc(-c2cc([C@H](C(=O)N3C[C@H](O)C[C@H]3C(=O)N[C@@H](C)c3ccc(-c4scnc4C)cc3)C(C)C)on2)cnc1N1CCC(c2sc3nnc(-c4ccccc4O)cc3c2C)CC1", "Target or system": "HiBit-BRG1 fusion protein (Homo sapiens, UniProt P51532)", "DC50": "> 1000 nM"}
{"Compound": "Cc1ncsc1-c1ccc([C@H](C)NC(=O)[C@@H]2C[C@@H](O)CN2C(=O)[C@@H](c2cc(N3CCC(c4sc5nnc(-c6ccccc6O)cc5c4C)CC3)no2)C(C)C)cc1", "Target or system": "HiBit-BRG1 fusion protein (Homo sapiens, UniProt P51532)", "DC50": "> 1000 nM"}
{"Compound": "Cc1ncsc1-c1ccc([C@H](C)NC(=O)[C@@H]2C[C@@H](O)CN2C(=O)[C@@H](c2cc(Oc3ccnc(N4CCC(c5sc6nnc(-c7ccccc7O)cc6c5C)CC4)n3)no2)C(C)C)cc1 (single isomer, unassigned)", "Target or system": "HiBit-BRG1 fusion protein (Homo sapiens, UniProt P51532)", "DC50": "> 1000 nM"}
{"Compound": "Cc1ncsc1-c1ccc([C@H](C)NC(=O)[C@@H]2C[C@@H](O)CN2C(=O)[C@@H](c2cc(-c3ccnc(N4CCC(c5sc6nnc(-c7ccccc7O)cc6c5C)CC4)n3)no2)C(C)C)cc1", "Target or system": "HiBit-BRG1 fusion protein (Homo sapiens, UniProt P51532)", "DC50": "> 10 nM"}
{"Compound": "Cc1ncsc1-c1ccc([C@H](C)NC(=O)[C@@H]2C[C@@H](O)CN2C(=O)[C@@H](c2cc(-c3ccc(N4CCC(c5sc6nnc(-c7ccccc7O)cc6c5C)CC4)cn3)no2)C(C)C)cc1", "Target or system": "HiBit-BRG1 fusion protein (Homo sapiens, UniProt P51532)", "DC50": "> 1000 nM"}
